- Experiment Notes: Fraction unbound in dog plasma at 2 uM
- Type: ADME, cell-free, Canis lupus familiaris
- Condition Summary: read-out: PPB
Quantity Kind: fraction unbound at 2 µM
One number for each entry.

What does the record list as fraction unbound at 2 µM for "CCN(CC)C(=O)c1ccc(C2=CC3(CCNCC3)Oc3cccc(O)c32)cc1" ?
0.152

====

- Target Entity: Kappa-type opioid receptor (Homo sapiens, UniProt P41145)
- Sequence (P41145 whole entry): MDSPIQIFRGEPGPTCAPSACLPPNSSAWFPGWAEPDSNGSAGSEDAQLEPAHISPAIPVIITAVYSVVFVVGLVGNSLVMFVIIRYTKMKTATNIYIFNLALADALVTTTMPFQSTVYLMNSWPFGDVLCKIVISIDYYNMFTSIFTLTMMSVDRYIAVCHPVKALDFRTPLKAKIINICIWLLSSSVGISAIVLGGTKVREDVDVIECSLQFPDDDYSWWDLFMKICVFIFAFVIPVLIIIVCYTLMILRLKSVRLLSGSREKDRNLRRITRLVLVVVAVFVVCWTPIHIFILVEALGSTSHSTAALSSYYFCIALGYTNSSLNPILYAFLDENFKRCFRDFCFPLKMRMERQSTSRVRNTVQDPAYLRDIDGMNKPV
- Experiment Notes: Displacement of [3H]diprenorphine from human kappa opioid receptor in CHO cells
- Type: cell-based
Quantity Kind: Ki (nM)
Give bare numbers, in nM.

>>> number("COC(=O)c1ccc(C2=CC3(CCNCC3)Oc3ccccc32)cc1")
520

Working through the 4 compounds below one at a time, give Ki for each.
1. C=CCN1C[C@H](C)N([C@H](c2ccc(C(=O)N(CC)CC)cc2)c2cccc(O)c2)C[C@H]1C
2. FC(F)(F)c1ccc(C2=CC3(CCNCC3)Oc3ccccc32)cc1
3. CCN(CC)C(=O)c1ccc(C2=CC3(CCNCC3)Oc3ccc(O)cc32)cc1
4. C1=C(c2ccccc2)c2ccccc2OC12CCNCC2

1. 3400
2. 2000
3. 830
4. 3400
